# Lookup of reported koff keyed by entry
- Test target: T1, human C5 R885H-mmh (human, UniProt P01031 19-1676)
- T1 construct: also called human C5 variant R885H
- Procedure summary: SPR, mAb captured via anti-hFc, 25C

- Binder: "H4H11686N (antibody, V domains shown, also called H2M11686N) VH: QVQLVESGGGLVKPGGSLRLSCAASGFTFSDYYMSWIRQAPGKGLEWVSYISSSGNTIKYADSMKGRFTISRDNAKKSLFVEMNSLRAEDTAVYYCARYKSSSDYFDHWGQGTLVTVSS VL: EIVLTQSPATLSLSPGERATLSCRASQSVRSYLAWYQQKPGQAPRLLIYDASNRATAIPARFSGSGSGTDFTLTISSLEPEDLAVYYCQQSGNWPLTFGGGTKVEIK"
  Value units: "s⁻¹"
  koff: 0.000106
- Binder: "H4H12171P (antibody, human IgG4, V domains shown, Human IgG4 Fc with S108P hinge mutation (H4H)) VH: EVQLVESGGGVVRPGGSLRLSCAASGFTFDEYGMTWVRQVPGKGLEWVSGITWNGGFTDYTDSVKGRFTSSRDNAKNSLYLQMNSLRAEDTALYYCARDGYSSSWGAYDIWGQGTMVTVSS VL: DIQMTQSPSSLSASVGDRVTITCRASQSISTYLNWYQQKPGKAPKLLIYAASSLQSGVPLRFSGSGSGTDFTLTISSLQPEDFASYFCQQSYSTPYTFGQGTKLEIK"
  Value units: "s⁻¹"
  koff: 0.000142
- Binder: "H4H12161P (antibody, human IgG4, V domains shown, Human IgG4 Fc with S108P hinge mutation (H4H)) VH: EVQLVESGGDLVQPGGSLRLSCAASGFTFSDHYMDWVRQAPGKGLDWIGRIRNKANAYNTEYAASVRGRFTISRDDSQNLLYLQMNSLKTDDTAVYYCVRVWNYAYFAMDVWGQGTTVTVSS VL: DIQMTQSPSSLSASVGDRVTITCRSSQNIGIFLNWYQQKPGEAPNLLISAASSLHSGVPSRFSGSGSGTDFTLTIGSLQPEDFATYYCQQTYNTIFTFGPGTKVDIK"
  Value units: "s⁻¹"
  koff: "8.32e-05"

Cited source for all entries: patent US20170355757A1
